For each of the compounds below, state its mortality at 100 g/ha.
Test system: Myzus persicae
Experiment: Myzus persicae spray test
Type: in vivo
Conditions: in Brassica rapa, foliar, 120 h, read-out: activity (mortality), application rate 100 g/ha, spray, Chinese cabbage leaf disks, after 5 days
Numbers only, in %.

query_smiles: CCN(C)C(=O)c1ccc(-n2nc(C)nc2[C@H](C)NC(=O)c2cc(C(F)(F)F)cc(C(F)(F)F)c2)nc1
mortality at 100 g/ha, %: 100

query_smiles: C[C@H](NC(=O)c1cc(Cl)cc(OC(F)(F)F)c1)c1ncnn1-c1ncc(Cl)s1
mortality at 100 g/ha, %: 90

query_smiles: Cc1nc([C@H](C)NC(=O)c2cc(C(F)(F)F)cc(C(F)(F)F)c2)n(-c2ccc(C(=O)N(C)C(C)C)cn2)n1
mortality at 100 g/ha, %: 90

query_smiles: Cc1nc([C@H](C)NC(=O)c2cc(C(F)(F)F)cc(C(F)(F)F)c2)n(-c2ccc(C(=O)N(C)CC(C)C)cn2)n1
mortality at 100 g/ha, %: 90

query_smiles: Cc1nc([C@H](C)NC(=O)c2cc(C(F)F)cc(C(F)F)c2)n(-c2ccc(C#N)cn2)n1
mortality at 100 g/ha, %: 90

For each listed entry, give its mortality at 100 g/ha.
1. Cc1nc([C@H](C)NC(=O)c2cc(Cl)cc(C#N)c2)n(-c2ccc(C#N)cn2)n1
2. Cc1nc([C@H](C)NC(=O)c2cc(C(F)(F)F)cc(C(F)(F)F)c2)n(-c2ccc(C(=O)N(C)CC#N)cn2)n1
3. COCCN(C)C(=O)c1ccc(-n2nc(C)nc2[C@H](C)NC(=O)c2cc(C(F)(F)F)cc(C(F)(F)F)c2)nc1
4. COc1nc([C@H](C)NC(=O)c2cc(OC(F)F)cc(OC(F)F)c2)n(-c2ccc(C#N)cn2)n1
5. CC(C)C(=O)Nc1ccc(-n2ncnc2[C@H](C)NC(=O)c2cc(Cl)cc(C(F)(F)F)c2)nc1

Solution:
[90, 90, 90, 90, 100]

Data provenance: patent US20220274947A1
